Biological target: κ opioid receptor (Homo sapiens, UniProt P41145)
Construct: expressed in transfected cells; host or cells: CHO cells (membranes)
Assay: Competition binding assay on membranes of CHO cells expressing κ opioid receptor, [3H]-labeled ligand
Conditions: Table 2-1; read-out: κOR Ki
Where a name gives a salt, the structure may show the parent alone.
reported property: pKi
Scale note: pKi = -log10(concentration in M).

Lab book: pKi of COc1cccc(C2(O)CCN(S(=O)(=O)C[C@]34CC[C@H](CC3O)C4(C)C)CC2CN(C)C)c1 (stereo partly shown) [FWBH27, hydrochloride] noted as 7.56

Lab book: pKi of COc1cccc(C2(O)CCN(S(=O)(=O)C[C@@]34CC[C@@H](CC3=O)C4(C)C)CC2CN(C)C)c1 (stereo partly shown) [FWBH24, hydrochloride] noted as 6.36

Lab book: pKi of COc1cccc(C2(O)CCN(S(=O)(=O)C[C@]34CC[C@H](CC3=O)C4(C)C)CC2CN(C)C)c1 (stereo partly shown) [FWBH25, hydrochloride] noted as 7.27

Lab book: pKi of COc1cccc(C2(O)CCN(S(=O)(=O)C[C@@]34CC[C@@H](CC3O)C4(C)C)CC2CN(C)C)c1 (stereo partly shown) [FWBH26, hydrochloride] noted as 8.09

###

Molecular target: μ opioid receptor (Homo sapiens, UniProt P35372)
Construct: expressed in transfected cells; host or cells: CHO cells (membranes)
Assay: Competition binding assay on membranes of CHO cells expressing μ opioid receptor, [3H]-labeled ligand
Conditions: Table 3-1; 1 μM concentration of compounds; read-out: μOR Binding rate (%)
Protocol: CHO cells expressing p opioid receptor, δ opioid receptor and κ opioid receptor were cultured in 10 cm^2 culture dishes (F-12 medium+10% neonatal bovine serum) for several days, and the culture fluid was aspirated after the cells had grown to the bottom of the dishes; 3 ml of PBS/EDTA solution (0.1M NaCl, 0.01M NaH2PO4, 0.04% EDTA) was added to digest the cells for 3-5 min. […]
Structures can show the parent of a compound that is named as a salt.
Please note: T applies when inhibition at 1 µM is 20% or greater, and F applies otherwise.

Previously resolved entries follow.
[[record]]
compound = "COc1cccc(C2(O)CCN(C(=O)Nc3cccc(F)c3)CC2CN(C)C)c1 (stereo not shown) [FWBF7, hydrochloride]"
category = "T"

[[record]]
compound = "COc1cccc(C2(O)CCN(C(=O)Nc3ccc(Cl)cc3)CC2CN(C)C)c1.Cl (stereo not shown) [FWBF4, hydrochloride]"
category = "T"

[[record]]
compound = "COc1cccc(C2(O)CCN(C(=O)NC34CC5CC(CC(C5)C3)C4)CC2CN(C)C)c1 (stereo not shown) [FWBF14, hydrochloride]"
category = "F"

[[record]]
compound = "COc1cccc(C2(O)CCN(C(=O)N(C)c3cccc(Cl)c3)CC2CN(C)C)c1.Cl (stereo not shown) [FWBF3, hydrochloride]"
category = "F"

[[record]]
compound = "COC(=O)c1ccsc1NC(=O)N1CCC(O)(c2cccc(OC)c2)C(CN(C)C)C1 (stereo not shown) [FWBF18, hydrochloride]"
category = "F"


Please examine the following record next.
In plain terms: is recorded inhibition at 1 µM at least 20% for COc1cccc(C2(O)CCN(C(=O)NC34CC5CC(CC(O)(C5)C3)C4)CC2CN(C)C)c1.Cl (stereo not shown) [FWBF16, hydrochloride] ?
F
